Attribute: pIC50
target_system: DNA topoisomerase 1 (Homo sapiens, UniProt P11387)
Sequence (P11387 whole entry): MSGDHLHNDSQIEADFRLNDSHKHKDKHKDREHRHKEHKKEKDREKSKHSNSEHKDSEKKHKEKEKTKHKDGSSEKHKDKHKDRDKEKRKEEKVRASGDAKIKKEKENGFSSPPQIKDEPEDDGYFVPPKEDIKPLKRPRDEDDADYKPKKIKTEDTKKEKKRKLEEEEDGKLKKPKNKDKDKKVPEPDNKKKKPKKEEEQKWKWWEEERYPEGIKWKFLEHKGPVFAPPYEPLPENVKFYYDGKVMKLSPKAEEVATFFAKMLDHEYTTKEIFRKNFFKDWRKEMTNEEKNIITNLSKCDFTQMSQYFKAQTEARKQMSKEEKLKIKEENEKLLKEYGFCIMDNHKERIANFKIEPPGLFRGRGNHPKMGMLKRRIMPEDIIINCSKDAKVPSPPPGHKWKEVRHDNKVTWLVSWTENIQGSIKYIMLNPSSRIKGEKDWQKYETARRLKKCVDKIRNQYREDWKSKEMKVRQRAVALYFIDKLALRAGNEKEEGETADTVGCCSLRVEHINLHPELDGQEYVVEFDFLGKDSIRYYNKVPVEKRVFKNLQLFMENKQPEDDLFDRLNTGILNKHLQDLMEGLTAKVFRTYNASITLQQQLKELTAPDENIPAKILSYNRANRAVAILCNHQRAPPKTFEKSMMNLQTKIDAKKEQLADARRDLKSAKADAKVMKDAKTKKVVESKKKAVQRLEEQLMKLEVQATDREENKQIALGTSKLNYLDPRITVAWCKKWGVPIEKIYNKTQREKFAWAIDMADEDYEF
assay_text: Inhibition of Topoisomerase I by cleavage complex formation in human HL-60 cells
Format: cell-based
# log scale: pIC50 equals minus log10 of the concentration in mol/L

// known answers, use as guide
{"columns": ["molecule", "metric", "value"],
 "data": [
  ["CC[C@@]1(O)C(=O)OCc2c1cc1n(c2=O)Cc2cc3c(C)cccc3nc2-1", "pIC50", 7.42],
  ["CC[C@@]1(O)C(=O)OCc2c1cc1n(c2=O)Cc2cc3c([N+](=O)[O-])c4c(cc3nc2-1)OCO4", "pIC50", 6.82],
  ["CC[C@@]1(O)C(=O)OCc2c1cc1n(c2=O)Cc2cc3c(N)cccc3nc2-1", "pIC50", 6.96],
  ["CCC1(O)C(=O)OCc2c1cc1n(c2=O)Cc2cc3c(N)c4c(cc3nc2-1)OCO4 (racemic)", "pIC50", 7.12],
  ["CCC(O)(C(=O)O)c1cc2n(c(=O)c1CO)Cc1cc3c(N)cccc3nc1-2 (racemic)", "pIC50", 4.89],
  ["CC[C@@](O)(C(=O)[O-])c1cc2n(c(=O)c1CO)Cc1cc3cc4c(cc3nc1-2)OCO4.[Na+]", "pIC50", 6.08],
  ["CCC1(O)C(=O)OCc2c1cc1n(c2=O)Cc2cc3c(Cl)c(Cl)ccc3nc2-1 (stereo not drawn)", "pIC50", 6.96],
  ["CC[C@@](O)(C(=O)O)c1cc2n(c(=O)c1CO)Cc1cc3ccccc3nc1-2", "pIC50", 4.92]
]}

Exam item: Given CCC1(OC(=O)CN)C(=O)OCc2c1cc1n(c2=O)Cc2cc3cc4c(cc3nc2-1)OCO4.Cl (racemic) , state its recorded pIC50.
Marked response: 6.37

Exam item: Given O=C1OCc2c(cc3n(c2=O)Cc2cc4ccccc4nc2-3)C1(O)CCO (racemic) , state its recorded pIC50.
Marked response: 5.02

Exam item: Given CC[C@@]1(O)C(=O)OCc2c1cc1n(c2=O)Cc2cc3cc(Cl)ccc3nc2-1 , state its recorded pIC50.
Marked response: 6.85

Exam item: Given CCC1(O)C(=O)OCc2c1cc1n(c2=O)Cc2cc3c(Cl)c4c(cc3nc2-1)OCO4 (stereo not drawn) , state its recorded pIC50.
Marked response: 7.21

Exam item: Given CC[C@@]1(O)C(=O)OCc2c1cc1n(c2=O)Cc2cc3cc(N)ccc3nc2-1 , state its recorded pIC50.
Marked response: 6.85
